target: prostate-specific antigen (PSA) (UniProt P07288 25-261); assay: SPR; AS2 3-50 nM, 2 mM MgCl2; SPR (Biacore CM5): PBS pH 7.4, 2 mM MgCl2 (PBSM), 25 °C, 15 µl/min, blank flow cell reference; conditions: protein: commercial
Sequence (P07288 25-261): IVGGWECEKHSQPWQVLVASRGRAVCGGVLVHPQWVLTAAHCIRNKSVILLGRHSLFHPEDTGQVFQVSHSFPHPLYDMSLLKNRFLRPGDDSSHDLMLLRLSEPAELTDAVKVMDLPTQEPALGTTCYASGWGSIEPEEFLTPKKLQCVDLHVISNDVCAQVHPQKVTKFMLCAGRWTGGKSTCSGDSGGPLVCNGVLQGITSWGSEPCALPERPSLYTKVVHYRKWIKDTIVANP
metric_name: pKd
Please treat pKd as minus the base-10 logarithm of the molar concentration.

[in] Given the entry GGGCGGGGCGGACGAGACAGTAAGGGCTGTGGGTGTGGTG (ssDNA) [AS2] , report its measured pKd.
[out] 9.15
